Sourced from ChEMBL document CHEMBL1130515

A set of compounds tested on D(3) dopamine receptor (Homo sapiens), with measured Ki:
Readout Label: Ki

>>> recorded_measurement("Clc1ccc(CN2CC=C(c3nc4cc(Cl)ccc4[nH]3)CC2)cc1")
"900 nM"
>>> recorded_measurement("Clc1ccccc1CN1CC=C(c2nc3ccccc3s2)CC1")
"1400 nM"
>>> recorded_measurement("Clc1ccc(CN2CC=C(c3nc4cc(Cl)ccc4s3)CC2)cc1")
"660 nM"
